assayedTarget: N-terminal His-tagged TYK2 pseudokinase domain (Homo sapiens, UniProt P29597)
Construct: the N-terminal His-tagged TYK2 pseudokinase domain; His (N); purchased Pharmaron
Sequence (P29597 589-875 limits assumed): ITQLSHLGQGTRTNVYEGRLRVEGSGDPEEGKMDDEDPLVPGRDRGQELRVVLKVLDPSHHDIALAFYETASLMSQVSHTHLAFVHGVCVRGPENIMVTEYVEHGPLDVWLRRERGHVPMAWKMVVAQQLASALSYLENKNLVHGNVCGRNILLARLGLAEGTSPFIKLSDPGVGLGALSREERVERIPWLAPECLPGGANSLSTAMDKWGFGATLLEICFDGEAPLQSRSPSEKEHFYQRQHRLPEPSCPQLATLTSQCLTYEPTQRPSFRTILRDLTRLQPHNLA
procedureDetails: TYK2 JH2 domain SPA binding assay
details: displacement of H3 probe (20 nM), 30 min room temperature; class symbols
parameter: IC50

Use these answered entries as a reference point.
molecule: [2H]C([2H])([2H])Nc1cc(Nc2cccn(C3CC4(CCOC4)C3)c2=O)nn2c(C(=O)N[C@@H]3C[C@@H]3F)cnc12 (single isomer, unassigned) [Compound 102b]
parameter: IC50
result: 10 to 100 nM

molecule: CNc1cc(Nc2cccn(-c3ccccn3)c2=O)nc2c(C(=O)NC3CCn4ccnc43)cnn12 (stereo not drawn)
parameter: IC50
result: < 10 nM

molecule: [2H]C([2H])([2H])Nc1cc(Nc2cccn(C3CC4OCCC43)c2=O)nn2c(C(=O)N[C@@H]3C[C@H]4CCO[C@H]43)cnc12 (single isomer, unassigned) [Compound 94a]
parameter: IC50
result: 10 to 100 nM

molecule: CNc1cc(Nc2cccc3c2OCCC3)nn2c(C(=O)NC3CCn4ccnc43)cnc12 (stereo not drawn)
parameter: IC50
result: < 10 nM

molecule: CNc1cc(Nc2cccn([C@H]3C[C@H](F)C3)c2=O)nn2c(C(=O)NC3CCn4ncnc43)cnc12 (mixture of isomers)
parameter: IC50
result: 10 to 100 nM

Below: the item to evaluate.
Query: Specify reported IC50 for the molecule shown: [2H]C([2H])([2H])Nc1cc(Nc2cccn(-c3ncccc3F)c2=O)nn2c(C(=O)N[C@@H]3C[C@H]4CCO[C@H]43)cnc12
Result: 10 to 100 nM
